Molecular target: T1, Avi/His-HuIL18BPa (recombinant human IL-18BP isoform A with Avi and poly-His tags) (human, biotinylated with BirA on the Avi tag in some assays)
T1 construct: also called human IL-18BP-Avi-His
T1 chain: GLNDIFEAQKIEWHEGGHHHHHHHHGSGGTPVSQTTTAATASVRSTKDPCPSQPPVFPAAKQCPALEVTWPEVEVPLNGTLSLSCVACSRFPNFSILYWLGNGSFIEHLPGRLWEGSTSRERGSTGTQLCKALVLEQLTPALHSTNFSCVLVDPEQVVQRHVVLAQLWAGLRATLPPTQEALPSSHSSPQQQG
Test: SPR Biacore T200, IgG captured on Protein A/G
Entries annotated with measured kon

- Binder: "anti-IL-18BP antibody variant BP-04.29 (antibody, V domains shown) VH: QVQLVQSGAEVKKPGASVKVSCKASGYTFTDYDMHWVRQAPGQGLEWMGIISTYYGDVSYAQKFQGRVTMTRDKSTSTVYMELSSLRSEDTAVYYCARSGTYNYGTRESHALDYWGQGTLVTVSS VL: DIQMTQSPSSVSASVGDRVTITCRASDNVYSNLAWYQQKPGKAPKLLIYGAISLADGVPSRFSGSGSGTDFTLTISSLQPEDFATYYCQHFWGNPYTFGQGTKLEIK"
  Measured Result: "390000 M⁻¹ s⁻¹"

Here's the next entry for you.
Task: Item under review: anti-IL-18BP antibody variant BP-04.32 (antibody, V domains shown) VH: QVQLVQSGAEVKKPGASVKVSCKASGYTFTDYDMHWVRQAPGQGLEWMGIYSTYYGDVSYAQKFQGRVTMTRDKSTSTVYMELSSLRSEDTAVYYCARSGTYYYGTRESHALDYWGQGTLVTVSS VL: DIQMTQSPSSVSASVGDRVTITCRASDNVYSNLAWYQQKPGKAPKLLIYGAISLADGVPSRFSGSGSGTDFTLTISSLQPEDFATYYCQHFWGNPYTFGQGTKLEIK . Reported kon?
Output: 370000 M⁻¹ s⁻¹
